Each recorded value in this set is attributed to patent US8748624B2.

# testTarget: UniProtKB P47871
# Sequence (P47871 26-477): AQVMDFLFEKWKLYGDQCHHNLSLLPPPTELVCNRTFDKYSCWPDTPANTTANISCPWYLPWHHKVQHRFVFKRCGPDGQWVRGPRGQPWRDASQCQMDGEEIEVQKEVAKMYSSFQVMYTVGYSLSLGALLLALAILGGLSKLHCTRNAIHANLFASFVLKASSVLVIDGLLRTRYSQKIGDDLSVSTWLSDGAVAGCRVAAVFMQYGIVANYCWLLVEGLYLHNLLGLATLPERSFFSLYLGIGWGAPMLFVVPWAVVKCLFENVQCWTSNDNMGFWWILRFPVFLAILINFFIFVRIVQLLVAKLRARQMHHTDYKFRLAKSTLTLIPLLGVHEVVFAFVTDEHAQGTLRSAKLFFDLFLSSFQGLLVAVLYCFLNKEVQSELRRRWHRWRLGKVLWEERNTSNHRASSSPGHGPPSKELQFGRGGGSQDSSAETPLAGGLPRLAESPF
# methodDescription: Inhibition of 125I-glucagon binding to membranes from HEK293 cells expressing the human glucagon receptor
# testSettings: membranes of hGluc-1 HEK cells, 125I-glucagon 0.3 nM, 2 hours room temperature; IC50 converted to Ki; average if tested more than once
pKi: −log10 of the molar value.

{"structureSmilesString": "Cc1cc(NCc2c(Cl)cc(C(F)(F)F)cc2-c2ccc(C(=O)NCCC(=O)O)nc2)ccc1-c1ccc(Cl)cc1", "testTarget": "UniProtKB P47871", "pKi": 7.56}
{"structureSmilesString": "O=C(O)CCNC(=O)c1ccc(-c2cc(Cl)ccc2CNc2ccc(-c3ccccc3Cl)cc2)cn1", "testTarget": "UniProtKB P47871", "pKi": 7.19}
{"structureSmilesString": "O=C(O)CCNC(=O)c1ccc(-c2ccccc2CNc2ccc(-c3ccc(C(F)(F)F)cc3)cc2)cn1", "testTarget": "UniProtKB P47871", "pKi": 7.02}
{"structureSmilesString": "Cc1cc(F)ccc1-c1ccc(NCc2ccc(Cl)cc2-c2ccc(C(=O)NCCC(=O)O)nc2)cc1", "testTarget": "UniProtKB P47871", "pKi": 7.78}
{"structureSmilesString": "CC(C)(C)c1ccc(-c2ccc(NCc3ccc(Cl)cc3-c3ccc(C(=O)NCCC(=O)O)nc3)cc2Cl)cc1", "testTarget": "UniProtKB P47871", "pKi": 7.42}
{"structureSmilesString": "O=C(O)CCNC(=O)c1ccc(-c2cc(C(F)(F)F)cc(C(F)(F)F)c2CNc2ccc(-c3ccc(Cl)cc3)cc2)cn1", "testTarget": "UniProtKB P47871", "pKi": 7.50}
{"structureSmilesString": "O=C(O)CCNC(=O)c1ccc(-c2cc(C(F)(F)F)ccc2CNc2ccc(-c3ccc(F)c(C(F)(F)F)c3)cc2)cn1", "testTarget": "UniProtKB P47871", "pKi": 7.53}
